system: KM12 colon; assay: NCI-60 one-dose screen, 48 h (100 = growth as untreated, 0 = no growth, -100 = all killed); conditions: 10 µM unless noted
This is part of a sample that, as a whole, favours compounds with a hit. Of some 83,000 tested, about 20% had one in any assay.
The class of a record is decided solely by its measured growth; consult interval 1: < 30%; interval 2: ≥ 30% and < 90%; interval 3: ≥ 90%

compound	class_name
C=C1C(=O)O[C@H]2[C@H]1CC/C(COC(=O)CCCCCCC(=O)OC/C1=C/CC[C@@]3(C)O[C@H]3[C@H]3OC(=O)C(=C)[C@@H]3CC1)=C\CC[C@@]1(C)O[C@@H]21	interval 2
COc1ccc(-c2cc(-c3nnc(SCC(=O)Nc4ccc(C(C)=O)cc4)o3)c3ccccc3n2)cc1	interval 2
Cc1cccc(NC(=O)c2sc3nc4c(cc3c2N)CN(Cc2ccccc2)CC4)c1C	interval 1
CCOC(=O)c1ccc(Nc2ncnc3ccc(NC(=O)c4ccccc4)cc23)cc1	interval 2
COc1cc(-c2csc(NC(=O)Nc3ccc(Cl)cc3)n2)cc(OC)c1OC	interval 1
O=C(Nc1nc(-c2ccccc2)cs1)c1cc(-c2ccc(Br)cc2)nc2ccccc12	interval 2
O=C(/C(=C/c1ccc([N+](=O)[O-])cc1)SCc1ccc(F)cc1)c1ccc(Cl)cc1	interval 1
CN1CC=C(c2cc(NC(=O)Nc3ccc(Oc4ccnc(NC(=O)C5CC5)c4)c(F)c3)cc(C(F)(F)F)c2)CC1	interval 1
C=C(C)[C@@H]1CC[C@]2(C(=O)OCCCC[P+](c3ccccc3)(c3ccccc3)c3ccccc3)CC[C@]3(C)[C@H](CC[C@@H]4[C@@]5(C)CC[C@H](OC(=O)C(Cl)Cl)C(C)(C)[C@@H]5CC[C@]43C)[C@@H]12	interval 1
CC1(c2ccccc2Cl)NC(=O)NC1=O (stereo not given)	interval 3
O=c1[nH]nc(-c2ccc(Br)cc2)c2sc(NC(=S)Nc3ccc(Cl)cc3)nc12	interval 3
COc1ccc(NC(=O)Nc2ccc(Nc3nc(C)cc(Nc4ccc(C)cc4)n3)cc2)cc1	interval 1
O=S(=O)(Nc1nccs1)c1ccc(Nc2nc(-c3ccncc3)cs2)cc1	interval 3
NCCN1CCNCC1	interval 3
O=C1C(Cl)=C(NCCCN(CCCNC2=C(Cl)C(=O)c3ccccc3C2=O)C2=C(Cl)C(=O)c3ccccc3C2=O)C(=O)c2ccccc21	interval 2
CC(=O)c1ccc(NC(=O)CSc2nnc(-c3cc(-c4ccc(C)cc4)nc4ccccc34)o2)cc1	interval 2
COC1=CC2C=C(C3N(c4ccccc4)NC(=O)[C@@H]4CCCN34)C(=O)NC2C=C1 (stereo not given in full)	interval 3
N#CC(C#N)=C1NC(c2ccccc2)=C(c2ccccc2)C(c2ccccc2Cl)=C1C#N	interval 3
CCOC(=O)C1=C(C)n2nc(CC#N)c(C#N)c2NC1c1ccc(CC)cc1 (stereo not given)	interval 3
O=C(O)CCNC1CCCCC1	interval 3
Cc1cccc(C)c1NCc1nnc(-c2ccc(O)cc2)o1	interval 3
Nc1c(C(=O)Nc2cccc3ccccc23)sc2nc3c(cc12)COCC3	interval 2
CCCCn1c(=O)c(/C=C/C(=O)/C=C/c2ccc(O)c(OC)c2)cc2ccc(Cl)cc21	interval 1
O=C1Nc2ccc(Cl)cc2/C1=N/c1nc(-c2ccc(F)cc2)cs1	interval 1
C=C(C)[C@@H]1CC[C@]2(C(=O)O)CC[C@]3(C)[C@H](CC[C@@H]4[C@@]5(C)C[C@@H](CC#Cc6ccccc6)C(=O)C(C)(C)[C@@H]5CC[C@]43C)[C@@H]12	interval 1
COc1cc(NC(=O)c2cc(O)c(C/C=C(\C)CCC=C(C)C)c(O)c2)cc2c1O[C@]1(C)CC[C@@H](O)C(C)(C)[C@H]1C2	interval 1
C=C1C(=O)O[C@H]2[C@H]1CC/C(COC(=O)/C=C/c1cccnc1)=C\CC[C@@]1(C)O[C@@H]21	interval 2
O=C(Nc1cccc(-c2cccc(F)c2)c1)C1CCN(Cc2cccc3cccnc23)CC1	interval 2
COc1cc2c(Nc3ccc(NC(=O)Nc4ccc(Cl)c(C(F)(F)F)c4)c(Cl)c3)ncnc2cc1OCCCN1CCN(C)CC1	interval 1
